# system.under.test: T1, monkey SIRPA protein (cynomolgus monkey, UniProt P78324 31-504 (human entry))
# T1 construct: Expressed on 293α cells from pcDNA3.2 V5-DEST or pFLAG V5-DEST vectors; also called cynomolgus monkey SIRPA; cSIRPA
# T1 chain: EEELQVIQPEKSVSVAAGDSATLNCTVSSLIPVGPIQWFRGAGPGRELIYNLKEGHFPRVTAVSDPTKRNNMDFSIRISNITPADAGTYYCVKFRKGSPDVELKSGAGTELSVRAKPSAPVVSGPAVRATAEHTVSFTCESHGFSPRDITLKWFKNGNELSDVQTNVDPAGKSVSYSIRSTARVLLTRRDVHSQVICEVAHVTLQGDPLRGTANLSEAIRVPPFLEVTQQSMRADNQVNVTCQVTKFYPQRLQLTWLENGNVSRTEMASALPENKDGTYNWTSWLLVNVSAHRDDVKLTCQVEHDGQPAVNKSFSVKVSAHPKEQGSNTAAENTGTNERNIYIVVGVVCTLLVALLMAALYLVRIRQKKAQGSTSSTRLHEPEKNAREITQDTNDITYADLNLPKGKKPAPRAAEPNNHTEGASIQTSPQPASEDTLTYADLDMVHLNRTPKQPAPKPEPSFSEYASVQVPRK
# test.details: blocking cell-based ELISA: peroxidase-labeled CD47-Fc (1 µg/mL) on 293α cells expressing monkey SIRPA; y axis = CD47-Fc signal relative to no antibody (100)
# Excerpt: […]

[
  {
    "binder": "humanized anti-SIRPA antibody hD13_H2L3 (antibody, human IgG4 S228P, kappa, F234A L235A, V domains shown, hH2 heavy chain (IgG4proFALA) and hL3 kappa light chain; also called H2L3 antibody) VH: EVQLVESGGGVVQPGRSLRLSCAASGFTFSDYGMIWVRQAPGKGLEWVASISSSSSYIYYADSVKGRFTISRDNSKNTLYLQMNSLRAEDTAVYYCARRYYGFNYPFDYWGQGTMVTVSS VL: DTQLTQSPSSLSASVGQRVTITCGASKSVRTYMHWYQQKPGKQPKLLIYSASNLEAGVPSRFSGSGSGTDFTLTISSLQPEDFATYYCQQSNEPPYTFGQGTKLEIKR",
    "IC50 (read off the curve)": "~0.8 mg/L"
  }
]

Entry source: patent US20260098102A1
